Tested on: MDA MB 231
Test: Cell viability, CellTiterGlo, 72 hours
Assay type: cell-based
Settings: Homo sapiens, MDA MB 231 cells, Breast
MEASUREMENT_LABEL: pIC50
On this scale, pIC50 is minus log10 of a concentration expressed in M (mol/L).

Can you look up pIC50 on MDA MB 231 for O=C(NC1CCN(CCCCC2(C(=O)NCC(F)(F)F)c3ccccc3-c3ccccc32)CC1)c1ccccc1-c1ccc(C(F)(F)F)cc1 [lomitapide] ?
5.49

====

Tested on: NCI-H1703
Test: Cell viability, CellTiterGlo, 72 hours
Type: cell-based
Conditions: Homo sapiens, NCI-H1703 cells, Lung
MEASUREMENT_LABEL: IC50 (µM)
Respond numerically; units are µM and should not be typed.

Form field: reported IC50 of O=C(NC1CCN(CCCCC2(C(=O)NCC(F)(F)F)c3ccccc3-c3ccccc32)CC1)c1ccccc1-c1ccc(C(F)(F)F)cc1 [lomitapide]
5.7

====

Test system: MOLT-4
Test: Cell viability, CellTiterGlo, 72 hours
Format: cell-based
Details: Homo sapiens, MOLT-4 cells, Blood
MEASUREMENT_LABEL: pIC50
Note: pIC50 values are expressed as the negative base-10 logarithm of concentration in M.

Look at this compound and give its reported pIC50. O=C(NC1CCN(CCCCC2(C(=O)NCC(F)(F)F)c3ccccc3-c3ccccc32)CC1)c1ccccc1-c1ccc(C(F)(F)F)cc1 [lomitapide]
5.44

====

Test system: U-937
Experiment: Cell viability, CellTiterGlo, 72 hours
Assay type: cell-based
Conditions: Homo sapiens, U-937 cells, Blood
MEASUREMENT_LABEL: pIC50
API: returns pIC50 as number; meaning -log10 of concentration in mol/L.

Data request, read-out pIC50, for O=C(NC1CCN(CCCCC2(C(=O)NCC(F)(F)F)c3ccccc3-c3ccccc32)CC1)c1ccccc1-c1ccc(C(F)(F)F)cc1 [lomitapide]
5.64

====

Tested on: U118MG
Assay: Cell viability, CellTiterGlo, 72 hours
Type: cell-based
Details: Homo sapiens, U-118-MG, U118MG cells, Brain
Description: In addition to the colorectal cells, 120 cancer cell lines treated with various concentrations of lomitapide were assayed for viability. To analyze cell viability, the cells were incubated with lomitapide at 37° C. for 72 hours in a 5% or 10% CO2 atmosphere and then equilibrated at room temperature for 1 hour, followed by addition of CellTiterGlo reagent (Promega). One hour later, luminescence was measured to calculate cell viability (%). […]
MEASUREMENT_LABEL: IC50 (nM)
// units = nM; emit number, no label

Given the entry O=C(NC1CCN(CCCCC2(C(=O)NCC(F)(F)F)c3ccccc3-c3ccccc32)CC1)c1ccccc1-c1ccc(C(F)(F)F)cc1 [lomitapide] , report its measured IC50.
2500

====

Tested on: HCC827
Test: Cell viability, CellTiterGlo, 72 hours
Assay type: cell-based
Details: Homo sapiens, HCC827 cells, Lung
MEASUREMENT_LABEL: IC50 (µM)
// units = µM; emit number, no label

Please look up its IC50: O=C(NC1CCN(CCCCC2(C(=O)NCC(F)(F)F)c3ccccc3-c3ccccc32)CC1)c1ccccc1-c1ccc(C(F)(F)F)cc1 [lomitapide]
4.1

====

Tested on: EFO-27
Assay: Cell viability, CellTiterGlo, 72 hours
Assay type: cell-based
Details: Homo sapiens, EFO-27 cells, Ovary
MEASUREMENT_LABEL: IC50
Express your answer as a number followed by its unit.

Query: IC50; subject: O=C(NC1CCN(CCCCC2(C(=O)NCC(F)(F)F)c3ccccc3-c3ccccc32)CC1)c1ccccc1-c1ccc(C(F)(F)F)cc1 [lomitapide]
4 µM

====

Test system: BEN
Assay: Cell viability, CellTiterGlo, 72 hours
Assay type: cell-based
Details: BEN cells, Lung
MEASUREMENT_LABEL: IC50 (µM)
Give the quantity in µM, number only.

Name the recorded IC50 for O=C(NC1CCN(CCCCC2(C(=O)NCC(F)(F)F)c3ccccc3-c3ccccc32)CC1)c1ccccc1-c1ccc(C(F)(F)F)cc1 [lomitapide] .
4.2

====

Tested on: HCC38
Test: Cell viability, CellTiterGlo, 72 hours
Type: cell-based
Settings: Homo sapiens, HCC38 cells, Breast
MEASUREMENT_LABEL: IC50 (µM)
Just the number please, in µM, no unit attached.

For the compound shown here, O=C(NC1CCN(CCCCC2(C(=O)NCC(F)(F)F)c3ccccc3-c3ccccc32)CC1)c1ccccc1-c1ccc(C(F)(F)F)cc1 [lomitapide] , give the reported IC50.
6

====

System: NCI-N87
Assay: Cell viability, CellTiterGlo, 72 hours
Format: cell-based
Conditions: Homo sapiens, NCI-N87 cells, Stomach
MEASUREMENT_LABEL: pIC50
Friendly reminder that pIC50 comes from taking -log10 of the concentration in mol/L.

Entry under review: O=C(NC1CCN(CCCCC2(C(=O)NCC(F)(F)F)c3ccccc3-c3ccccc32)CC1)c1ccccc1-c1ccc(C(F)(F)F)cc1 [lomitapide] . Reported pIC50?
5.48

====

Tested on: HCC 1569
Assay: Cell viability, CellTiterGlo, 72 hours
Type: cell-based
Conditions: Homo sapiens, HCC1569, HCC 1569 cells, Breast
MEASUREMENT_LABEL: IC50 (nM)
Only the number, expressed in nM, is required.

What does the record list as IC50 for O=C(NC1CCN(CCCCC2(C(=O)NCC(F)(F)F)c3ccccc3-c3ccccc32)CC1)c1ccccc1-c1ccc(C(F)(F)F)cc1 [lomitapide] ?
2900

====

Tested on: MOLM-13
Experiment: Cell viability, CellTiterGlo, 72 hours
Format: cell-based
Settings: Homo sapiens, MOLM-13 cells, Blood
Protocol: In addition to the colorectal cells, 120 cancer cell lines treated with various concentrations of lomitapide were assayed for viability. To analyze cell viability, the cells were incubated with lomitapide at 37° C. for 72 hours in a 5% or 10% CO2 atmosphere and then equilibrated at room temperature for 1 hour, followed by addition of CellTiterGlo reagent (Promega). One hour later, luminescence was measured to calculate cell viability (%). […]
MEASUREMENT_LABEL: IC50 (µM)
The reply should contain only the number, in µM.

Fill in the blank: the reported IC50 of O=C(NC1CCN(CCCCC2(C(=O)NCC(F)(F)F)c3ccccc3-c3ccccc32)CC1)c1ccccc1-c1ccc(C(F)(F)F)cc1 [lomitapide] is ____.
6.3

====

System: NCI-H2009
Assay: Cell viability, CellTiterGlo, 72 hours
Type: cell-based
Conditions: Homo sapiens, NCI-H2009 cells, Lung
MEASUREMENT_LABEL: IC50 (µM)
Unit µM implied. Number only.

Look at this compound and give its reported IC50. O=C(NC1CCN(CCCCC2(C(=O)NCC(F)(F)F)c3ccccc3-c3ccccc32)CC1)c1ccccc1-c1ccc(C(F)(F)F)cc1 [lomitapide]
3.3

====

System: Hutu 80
Assay: Cell viability, CellTiterGlo, 72 hours
Format: cell-based
Details: Homo sapiens, HuTu80, Hutu 80 cells, Duodenum
MEASUREMENT_LABEL: IC50 (nM)
Number in nM, nothing else.

What IC50 appears in the records for this compound with Hutu 80? O=C(NC1CCN(CCCCC2(C(=O)NCC(F)(F)F)c3ccccc3-c3ccccc32)CC1)c1ccccc1-c1ccc(C(F)(F)F)cc1 [lomitapide]
3000

====

Tested on: U251MG
Test: Cell viability, CellTiterGlo, 72 hours
Format: cell-based
Details: Homo sapiens, U-251, U251MG cells, Brain
MEASUREMENT_LABEL: pIC50
// returns pIC50 (minus log10 of molar concentration), number only

What measured pIC50 goes with O=C(NC1CCN(CCCCC2(C(=O)NCC(F)(F)F)c3ccccc3-c3ccccc32)CC1)c1ccccc1-c1ccc(C(F)(F)F)cc1 [lomitapide] ?
5.27

====

Test system: Mia PaCA 2
Experiment: Cell viability, CellTiterGlo, 72 hours
Type: cell-based
Conditions: Homo sapiens, Mia PaCA 2 cells, Pancreas
MEASUREMENT_LABEL: IC50 (nM)
Your answer should be a plain number; it is taken to be in nM.

Entry O=C(NC1CCN(CCCCC2(C(=O)NCC(F)(F)F)c3ccccc3-c3ccccc32)CC1)c1ccccc1-c1ccc(C(F)(F)F)cc1 [lomitapide] : reported IC50 = ?
2900

====

Tested on: LOVO
Assay: Cell viability, CellTiterGlo, 72 hours
Assay type: cell-based
Details: Homo sapiens, LOVO cells, Colon
Protocol: In addition to the colorectal cells, 120 cancer cell lines treated with various concentrations of lomitapide were assayed for viability. To analyze cell viability, the cells were incubated with lomitapide at 37° C. for 72 hours in a 5% or 10% CO2 atmosphere and then equilibrated at room temperature for 1 hour, followed by addition of CellTiterGlo reagent (Promega). One hour later, luminescence was measured to calculate cell viability (%). […]
MEASUREMENT_LABEL: pIC50
As a rule, pIC50 stands for the negative log10 of the concentration, concentration in M.

// returns reported pIC50 for input O=C(NC1CCN(CCCCC2(C(=O)NCC(F)(F)F)c3ccccc3-c3ccccc32)CC1)c1ccccc1-c1ccc(C(F)(F)F)cc1 [lomitapide]
5.47
